The reported numbers originate from paper PMC12591191.

Molecular target: SIRT6 S56Y (human, UniProt Q8N6T7 1-355, S56Y)
Sequence (Q8N6T7 whole entry S56Y): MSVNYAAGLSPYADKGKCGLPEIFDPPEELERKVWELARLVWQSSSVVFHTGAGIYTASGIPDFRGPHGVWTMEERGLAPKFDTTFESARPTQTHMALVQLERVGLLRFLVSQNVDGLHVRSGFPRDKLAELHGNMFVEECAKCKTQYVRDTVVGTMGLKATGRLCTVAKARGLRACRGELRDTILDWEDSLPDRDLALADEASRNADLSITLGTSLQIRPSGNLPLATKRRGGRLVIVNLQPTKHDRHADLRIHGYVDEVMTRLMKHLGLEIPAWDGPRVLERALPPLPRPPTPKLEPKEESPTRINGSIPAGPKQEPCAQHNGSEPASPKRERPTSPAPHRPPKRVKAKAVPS
Assay: BLI
pKd: −log10 of the molar value. Where no end group is shown, it is not given here. The star is where a group is joined. Biotin = O=C1N[C@H]2[C@H](CS[C@H]2CCCCC(=O)*)N1; Myristoyl = CCCCCCCCCCCCCC(=O)*
parameter: pKd

binder | parameter | reading
Biotin-KQTARK(Myristoyl)STGGKARRRRR [B-H3K9^Myr-5R (biotin-KQTARK^MyrSTGGKARRRRR)] | pKd | 5.80
